The values you see were collected from patent US11339171B2.

STUDY TARGET: MDM2 (Homo sapiens, UniProt Q00987)
Construct: made in house
Sequence (Q00987 whole entry): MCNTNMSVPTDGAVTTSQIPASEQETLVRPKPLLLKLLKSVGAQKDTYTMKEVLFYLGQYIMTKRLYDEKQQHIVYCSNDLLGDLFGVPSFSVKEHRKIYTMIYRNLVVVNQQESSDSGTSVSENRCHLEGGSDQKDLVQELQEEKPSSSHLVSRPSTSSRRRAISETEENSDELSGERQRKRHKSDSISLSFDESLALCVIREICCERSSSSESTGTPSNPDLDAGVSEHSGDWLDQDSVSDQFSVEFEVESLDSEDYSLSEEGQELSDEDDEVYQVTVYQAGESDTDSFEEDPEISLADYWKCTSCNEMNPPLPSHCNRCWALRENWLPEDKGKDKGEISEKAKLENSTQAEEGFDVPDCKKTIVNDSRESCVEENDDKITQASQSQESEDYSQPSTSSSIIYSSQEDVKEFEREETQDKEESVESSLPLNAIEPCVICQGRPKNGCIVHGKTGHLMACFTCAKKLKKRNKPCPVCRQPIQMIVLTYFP
TEST: Inhibition test of MDM2-P53 (GST-MDM2, Biotin-P53, Anti-GST-Tb, SA-XL665)
Assay type: binding
MEASURED PROPERTY: pIC50
pIC50 here: minus log base 10 of the concentration, concentration in moles per litre.

Req: If you can, please state the reported pIC50 value of COc1cc(C2CC2)ncc1-c1nc2c(n1C(C)C)[C@@]1(C(=O)Nc3cc(Cl)ccc31)N(c1cc(Cl)cnc1C)C2=O [Example S-143] .
Resp: 8.96

Req: Quick check: pIC50 of COc1cc(OCCF)ncc1-c1nc2c(n1C(C)C)[C@@]1(C(=O)Nc3cc(Cl)ccc31)N(c1cc(Cl)ccc1C)C2=O [Example S-163] ?
Resp: 8.87

Req: Give its pIC50 value. Item: COc1ccc(C(N)=O)cc1-c1nc2c(n1C(C)C)[C@@]1(C(=O)Nc3cc(Cl)ccc31)N(c1cc(Cl)ccc1C)C2=O [Example S-29]
Resp: 9.00

Req: Need pIC50, item CCc1ccccc1-c1nc2c(n1C(C)C)[C@]1(C(=O)Nc3cc(Cl)ccc31)N(c1cc(Cl)ccc1C)C2=O [Example R-7]
Resp: 4.44

Req: Any idea what its pIC50 is? The compound is COc1cc(-c2nc3c(n2C(C)C)[C@]2(C(=O)Nc4cc(Cl)ccc42)N(c2cc(Cl)ccc2C)C3=O)c(OC)cn1 [Example R-40]
Resp: 6.49

Req: What does the data say about its pIC50? Entry: COc1ncc(-c2nc3c(n2C2CCC2)[C@]2(C(=O)Nc4cc(Cl)ccc42)N(c2cc(Cl)ccc2C)C3=O)c(OC)n1 [Example R-41]
Resp: 5.14

Req: Give its pIC50 value. Item: CNc1ccc(-c2nc3c(n2C(C)C)[C@]2(C(=O)Nc4cc(Cl)ccc42)N(c2cc(Cl)ccc2C)C3=O)c(OC)c1 [Example R-25]
Resp: 7.29

Req: // returns reported pIC50 for input COc1ccc(C(C)C)c(-c2nc3c(n2C(C)C)[C@@]2(C(=O)Nc4cc(Cl)ccc42)N(c2cc(Cl)ccc2C)C3=O)c1 [Example S-19]
Resp: 7.46

Req: Using the record for COc1nc(OC(C)C)ncc1-c1nc2c(n1C(C)C)[C@]1(C(=O)Nc3cc(Cl)ccc31)N(c1cc(Cl)ccc1C)C2=O [Example R-126] , report its pIC50.
Resp: 6.71

Req: Which value of pIC50 has been reported for Cc1ccc(Cl)cc1N1C(=O)c2nc(-c3ccccc3OC(F)(F)F)n(C(C)C)c2[C@]12C(=O)Nc1cc(Cl)ccc12 [Example R-31] in the records?
Resp: 5.85

Req: Given the entry COc1ncncc1-c1nc2c(n1C(C)C)[C@]1(C(=O)Nc3cc(Cl)ccc31)N(c1cc(Cl)ccc1C)C2=O [Example R-27] , report its measured pIC50.
Resp: 6.03

Req: Looking for the measured pIC50 of COc1ccc(N2C(=O)c3nc(-c4ccccc4OC)n(C(C)C)c3[C@]23C(=O)Nc2cc(Cl)ccc23)cc1Cl [Example R-63] , can you help?
Resp: 6.27

Req: Dear colleague, I am looking for the recorded pIC50 of the following compound: COc1cccc(OC)c1-c1nc2c(n1C(C)C)[C@]1(C(=O)Nc3cc(Cl)ccc31)N(c1cc(Cl)ccc1C)C2=O [Example R-79]
Resp: 6.54

Req: For the compound shown here, COc1cc(C)ccc1-c1nc2c(n1C(C)C)[C@@]1(C(=O)Nc3cc(Cl)ccc31)N(c1cccc(Cl)c1)C2=O [Example S-109] , give the reported pIC50.
Resp: 8.63

Req: Entry under review: COc1nc(N(C)C)ncc1-c1nc2c(n1C(C)C)[C@]1(C(=O)Nc3cc(Cl)ccc31)N(c1cccc(Cl)c1)C2=O [Example R-112] . Reported pIC50?
Resp: 6.98

Req: Can you share its pIC50? I mean this compound: COc1cc(C)ncc1-c1nc2c(n1C(C)C)[C@]1(C(=O)Nc3cc(Cl)ccc31)N(c1cc(Cl)ccc1C)C2=O [Example R-154]
Resp: 7.51

Req: Given the entry COc1cc(C#N)ccc1-c1nc2c(n1C(C)C)[C@]1(C(=O)Nc3cc(Cl)ccc31)N(c1cccc(Cl)c1)C2=O [Example R-128] , report its measured pIC50.
Resp: 6.21

Req: # pIC50 lookup, item COc1cc(OCCF)ncc1-c1nc2c(n1C(C)C)[C@@]1(C(=O)Nc3cc(Cl)ccc31)N(c1cccc(Cl)c1)C2=O [Example S-177]
Resp: 8.63

Req: Reported pIC50 for COc1cc(OC)c(-c2nc3c(n2C(C)C)[C@]2(C(=O)Nc4cc(Cl)ccc42)N(c2cc(Cl)ccc2C)C3=O)cc1F [Example R-92] : what is it?
Resp: 6.42

Req: Query: pIC50; subject: COc1cc(OC(F)F)ncc1-c1nc2c(n1C(C)C)[C@]1(C(=O)Nc3cc(Cl)ccc31)N(c1cc(Cl)ccc1C)C2=O [Example R-150]
Resp: 6.42

Req: Given the compound COc1nc(C2CC2)ncc1-c1nc2c(n1C(C)C)[C@]1(C(=O)Nc3cc(Cl)ccc31)N(c1cccc(Cl)c1)C2=O [Example R-122] , what is its reported pIC50?
Resp: 6.10

Req: Request the reported pIC50 associated with COc1ncc(-c2nc3c(n2C(C)C)[C@]2(C(=O)Nc4cc(Cl)ccc42)N(c2cc(Cl)cnc2C)C3=O)c(OC)n1 [Example R-42]
Resp: 6.44

Req: Look up pIC50 for this compound: COc1ccccc1-c1nc2c(n1C(C)C)[C@@]1(C(=O)Nc3cc(Cl)ccc31)N(c1cc(Cl)cn(C)c1=O)C2=O [Example S-43]
Resp: 8.48

Req: Please give the measured pIC50 for this compound: COc1cc(OC)c(-c2nc3c(n2C(C)C)[C@@]2(C(=O)Nc4cc(Cl)ccc42)N(c2cc(Cl)ccc2C)C3=O)cn1 [Example S-11]
Resp: 8.80

Req: Consider the compound shown here: COc1cc(C(N)=O)ccc1-c1nc2c(n1C(C)C)[C@]1(C(=O)Nc3cc(Cl)ccc31)N(c1cc(Cl)ccc1C)C2=O [Example R-77] What is its recorded pIC50?
Resp: 6.86

Req: Please report the recorded pIC50 for CCc1ccc(OC)c(-c2nc3c(n2C(C)C)[C@@]2(C(=O)Nc4cc(Cl)ccc42)N(c2cccc(Cl)c2)C3=O)c1 [Example S-38] .
Resp: 7.92
